Entries annotated with measured melting point

Below, each entry is followed by its recorded melting point result.
compound	melting point
CCCOc1ccc(-c2scc(-c3ccccc3OC(F)(F)F)c2CC(=O)N=C(N)N)cc1 [Example 6]	90 to 92 °C
CCC(=O)c1ccc(Oc2ccc(-c3scc(-c4ccccc4Cl)c3CC(=O)N=C(N)N)cc2)cc1 [Example 10]	123 to 124 °C
NC(N)=NC(=O)Cc1c(-c2ccccc2)csc1-c1ccc(Oc2ccccc2)cc1 [Example 3]	116 to 118 °C
N=C(NCCCO)NC(=O)Cc1c(-c2ccccc2Cl)csc1-c1ccc(C(=O)NCC2CC2)cc1 [Example 16]	100 to 101 °C
CCCOc1ccc(-c2scc(-c3ccccc3Cl)c2CC(=O)NC(=N)NCCCO)cc1C [Example 18]	73 to 76 °C
N=C(NCCCO)NC(=O)Cc1c(-c2ccccc2Cl)csc1-c1ccc(C(=O)NCC(F)(F)F)cc1 [Example 14]	103 to 105 °C

Asked: Assign melting point to the following record: CCCCNC(=O)c1ccc(-c2scc(-c3ccccc3Cl)c2CC(=O)NC(=N)NCCCO)cc1 [Example 17]
Given back: 92 to 95 °C

Asked: Assign melting point to the following record: CCCOc1ccc(-c2scc(-c3ccccc3)c2CC(=O)NC(=N)N)cc1 [Example 7]
Given back: 94 to 95 °C

Asked: Assign melting point to the following record: CCCOc1ccc(-c2csc(-c3ccccc3Cl)c2CC(=O)N=C(N)N)cc1 [Example 5]
Given back: 111 to 113 °C

Asked: Assign melting point to the following record: CCCOc1ccc(-c2scc(-c3ccccc3Cl)c2CC(=O)NC(=N)NCCCO)c(C)c1 [Example 19]
Given back: 103 to 105.5 °C

Asked: Assign melting point to the following record: CCCOc1ccc(-c2scc(-c3ccccc3Cl)c2CC(=O)NC(=N)NCCCO)cc1 [Example 12]
Given back: 49 to 50 °C

###

target: human BACE1 (Homo sapiens, UniProt P56817)
Sequence (P56817 46-501): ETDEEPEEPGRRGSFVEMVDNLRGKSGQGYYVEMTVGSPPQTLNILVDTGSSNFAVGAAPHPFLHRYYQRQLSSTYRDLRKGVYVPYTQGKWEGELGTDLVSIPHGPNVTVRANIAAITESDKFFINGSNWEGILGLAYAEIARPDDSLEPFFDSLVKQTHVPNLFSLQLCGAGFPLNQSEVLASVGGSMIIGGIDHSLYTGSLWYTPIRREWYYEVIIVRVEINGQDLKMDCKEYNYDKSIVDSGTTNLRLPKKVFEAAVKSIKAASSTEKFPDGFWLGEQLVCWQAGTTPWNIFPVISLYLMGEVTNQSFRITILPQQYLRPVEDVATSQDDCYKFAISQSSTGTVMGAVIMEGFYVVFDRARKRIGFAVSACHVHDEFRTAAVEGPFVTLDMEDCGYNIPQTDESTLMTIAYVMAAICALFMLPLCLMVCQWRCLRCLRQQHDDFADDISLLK
measurement-label: IC50 (µM)

molecule	target	IC50 [µM]
CCC(=O)c1ccc(Oc2ccc(-c3scc(-c4ccccc4Cl)c3CC(=O)N=C(N)N)cc2)cc1 [Example 10]	human BACE1 (Homo sapiens, UniProt P56817)	1.73
NC(N)=NC(=O)Cc1c(-c2ccccc2)csc1-c1ccc(Oc2ccccc2)cc1 [Example 3]	human BACE1 (Homo sapiens, UniProt P56817)	2.06

###

Entries annotated with measured melting point

Below, each entry is followed by its recorded melting point result.
smiles-data	melting point
CCCOc1ccc(-c2csc(-c3ccccc3)c2CC(=O)N=C(N)N)cc1	131 to 132 °C
CCCOc1ccc(-c2scc(-c3ccccc3Cl)c2CC(=O)N=C(N)N)cc1	98 to 99 °C
CCC(CC)NC(=O)c1ccc(-c2scc(-c3ccccc3Cl)c2CC(=O)NC(=N)NCCCO)cc1	109 to 110 °C

Asked: Assign melting point to the following record: "NC(N)=NC(=O)Cc1c(-c2ccccc2Cl)csc1-c1ccc(OCCc2cn[nH]c2)cc1"
Given back: 71 to 72 °C

Asked: Assign melting point to the following record: "NC(N)=NC(=O)Cc1c(-c2ccccc2Cl)csc1-c1ccc(Oc2ccccc2)cc1"
Given back: 76 to 78 °C

Asked: Assign melting point to the following record: "CC(=O)c1ccc(Oc2ccc(-c3scc(-c4ccccc4Cl)c3CC(=O)N=C(N)N)cc2)cc1"
Given back: 117 to 118 °C

Asked: Assign melting point to the following record: "CCCNC(=O)c1ccc(-c2scc(-c3ccccc3Cl)c2CC(=O)NC(=N)NCCCO)cc1"
Given back: 116 to 118 °C

Asked: Assign melting point to the following record: "NC(N)=NC(=O)Cc1c(-c2ccccc2)csc1-c1ccccc1"
Given back: 204 to 205.5 °C
